Reference source: patent US11981658B2

Molecular target: EGFR L858R/C797S (Homo sapiens, UniProt P00533, C797S/L858R)
Sequence (P00533 25-1210 C797S/L858R): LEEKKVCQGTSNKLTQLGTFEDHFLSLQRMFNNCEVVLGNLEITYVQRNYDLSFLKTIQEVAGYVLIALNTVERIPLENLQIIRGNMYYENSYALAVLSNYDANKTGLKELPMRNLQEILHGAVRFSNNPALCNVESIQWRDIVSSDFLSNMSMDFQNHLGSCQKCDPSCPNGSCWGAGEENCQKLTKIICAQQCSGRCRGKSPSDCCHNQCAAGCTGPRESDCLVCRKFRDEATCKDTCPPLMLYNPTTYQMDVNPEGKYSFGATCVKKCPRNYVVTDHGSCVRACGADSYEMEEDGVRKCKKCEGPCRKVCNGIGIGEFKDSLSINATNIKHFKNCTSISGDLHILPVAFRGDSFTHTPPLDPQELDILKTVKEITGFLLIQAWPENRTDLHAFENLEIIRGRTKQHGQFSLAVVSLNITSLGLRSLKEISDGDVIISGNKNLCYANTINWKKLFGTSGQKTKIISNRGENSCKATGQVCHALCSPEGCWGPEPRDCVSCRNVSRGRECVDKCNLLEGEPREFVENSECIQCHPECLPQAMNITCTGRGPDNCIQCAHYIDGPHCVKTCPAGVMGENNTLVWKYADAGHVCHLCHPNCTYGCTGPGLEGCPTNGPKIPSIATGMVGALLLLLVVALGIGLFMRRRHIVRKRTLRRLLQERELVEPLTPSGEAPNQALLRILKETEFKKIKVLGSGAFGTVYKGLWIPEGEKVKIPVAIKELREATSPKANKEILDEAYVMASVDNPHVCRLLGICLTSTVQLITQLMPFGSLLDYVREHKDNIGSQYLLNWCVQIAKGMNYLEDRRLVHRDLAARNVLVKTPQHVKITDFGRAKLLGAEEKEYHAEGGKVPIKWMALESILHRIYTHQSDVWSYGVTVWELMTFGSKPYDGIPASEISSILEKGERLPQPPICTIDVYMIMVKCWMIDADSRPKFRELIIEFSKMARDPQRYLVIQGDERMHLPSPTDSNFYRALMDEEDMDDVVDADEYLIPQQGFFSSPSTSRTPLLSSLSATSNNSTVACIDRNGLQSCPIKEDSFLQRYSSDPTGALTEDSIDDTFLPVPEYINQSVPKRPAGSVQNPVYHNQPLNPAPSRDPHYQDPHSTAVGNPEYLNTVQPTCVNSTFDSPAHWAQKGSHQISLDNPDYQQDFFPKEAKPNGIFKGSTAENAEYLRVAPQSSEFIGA
Assay: Biochemical EGFR kinase inhibition assay (Lance Ultra TR-FRET), double mutant L858R/C797S
Conditions: IC50 L858R/C797S (nM), 100 μM ATP
reportedEndpoint: IC50 (nM)

(1) Nc1cccc(C#Cc2cnc(Nc3ccnc(-c4cnn(S(=O)(=O)C5CC5)c4)n3)cc2N[C@@H]2CCC[C@H](O)C2)c1
(2) COC1(O)CCN(c2cc(Nc3ccnc(-c4cnn(S(=O)(=O)C5CC5)c4)n3)ncc2C#Cc2ncc(CN3CCOCC3)cn2)CC1
(3) CC1(CO)CCN(c2cc(Nc3ccnc(-c4cnn(S(=O)(=O)C5CC5)c4)n3)ncc2C#Cc2cnn(CC3COCCO3)c2)CC1 (stereo not drawn)
Inquiry: Your job: order these 3 records by IC50, ascending. Output spec: labels arranged per the requested ranking.
Reply text: 3, 2, 1
(3: 13.8 nM, 2: 46.6 nM, 1: 391 nM)
